Recorded inhibition, one value per entry.
- experimental.system: Mannose-6-phosphate isomerase (Homo sapiens) (UniProt P34949)
- Sequence (P34949 whole entry, looked up): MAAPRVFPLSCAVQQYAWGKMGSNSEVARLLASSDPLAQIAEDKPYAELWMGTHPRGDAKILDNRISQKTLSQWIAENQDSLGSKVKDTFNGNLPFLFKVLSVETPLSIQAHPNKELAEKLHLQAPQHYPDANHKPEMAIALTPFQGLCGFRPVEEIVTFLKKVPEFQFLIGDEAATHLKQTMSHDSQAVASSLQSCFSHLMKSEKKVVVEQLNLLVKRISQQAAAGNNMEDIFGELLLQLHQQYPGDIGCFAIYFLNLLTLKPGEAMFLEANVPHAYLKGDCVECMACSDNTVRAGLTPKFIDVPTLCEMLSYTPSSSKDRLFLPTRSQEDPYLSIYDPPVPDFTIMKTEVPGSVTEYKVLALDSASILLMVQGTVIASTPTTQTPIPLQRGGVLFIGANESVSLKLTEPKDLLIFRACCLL
- assay.method.text: MPI inhibition at elevated mannose 6-phosphate – biochemical, fluorescence intensity, high mannose 6-phosphate, primary screen (AID 1220)
- conditions: recombinant PMI enzyme, coupled fluorescence intensity; at 20 µM; stronger effect = higher value
Hit rate of the full screen: of about 190,000 compounds, about 1,300 (0.68%) were called active. The list comes from a sample in which actives are over-represented; it also holds close analogues and randomly drawn compounds.

| compound | units | inhibition |
| --- | --- | --- |
| COCCCNC(=S)Nc1ccc(C)cc1[N+](=O)[O-] | % | 5.7 |
| COc1ccc(CC(=O)OC(C)CN2CCOCC2)cc1 (centres undefined) | % | -1.4 |
| CCCC1CCC(=NNC(=O)OC(C)(C)C)CC1 (centres undefined) | % | 2.1 |
| Cc1ccc(NS(=O)(=O)c2ccc(Br)s2)nc1 | % | 66.2 |
| O=C(NCC1CCCO1)C(=O)NCC(c1ccco1)N1CCN(c2ccccc2)CC1 (centres undefined) | % | -4.7 |
| CCCN=Cc1c(CCC)[nH]n(-c2nc3ccccc3s2)c1=O | % | 4.7 |
| CCCCCCCCCS(=O)(=O)Nc1cc(C)ccn1 | % | 7.7 |
| CCOC(=O)c1sc(NC(=S)NC(=O)c2ccccc2Cl)c(C(=O)OCC)c1C | % | 5.4 |
| CCCc1[nH]n(-c2nc3ccccc3s2)c(=O)c1C=NCC(C)C | % | 0.7 |
| CCC(=O)NC(c1ccc(OC)c(OC)c1)c1cc(Cl)c2cccnc2c1O (centres undefined) | % | 41.1 |
| O=C(O)C1CC=CCC1C(=O)NCCc1csc(-c2ccccc2)n1 (centres undefined) | % | -17.1 |
| Cn1c2ccccc2c(=O)n2c(=O)c3ccccc3cc12 | % | 54.4 |
| CCCC(=O)NC(c1ccco1)c1cc([N+](=O)[O-])c2cccnc2c1O (centres undefined) | % | 7.9 |
| COc1ccc(C(NC(C)=O)c2cc(Cl)c3cccnc3c2O)cc1OC (centres undefined) | % | 55.7 |
| COC1=C(OC)C(=O)C(CCCCCCCCCCO)=C(C)C1=O | % | 78.2 |
| CCCCS(=O)(=O)Nc1ccc(C)cn1 | % | 57.3 |
| C/C(=C\C(=O)Nc1cc(C)on1)c1ccccc1 | % | 15.6 |
| CC1=C(C)C(=O)C(CCCCC#CCCCC#CCO)=C(C)C1=O | % | 19.9 |
| Cc1cccc(NS(=O)(=O)c2ccc(Br)s2)n1 | % | -4.4 |
| CCOC(=O)c1sc(NC(=O)c2ccccc2F)c(C(N)=O)c1C | % | 56.6 |
| Cc1cc(C)nc(NS(=O)(=O)c2ccc(Br)s2)c1 | % | 42.1 |
| CC(Oc1ccc(Br)cc1)C(=O)NCc1ccccn1 (centres undefined) | % | -0.8 |
| CCCc1[nH]n(-c2nc3ccccc3s2)c(=O)c1C=NCC1CCCO1 (centres undefined) | % | 51 |
| CCC(=O)NC(c1ccc(C)cc1)c1cc([N+](=O)[O-])c2cccnc2c1O (centres undefined) | % | 54.5 |
